Numbers sourced from patent US11981658B2.

TGT: EGFR Del19/C797S (Homo sapiens, UniProt P00533, C797S/DEL746-750)
Sequence (P00533 with tags, fused parts or gaps DEL746-750/C797S): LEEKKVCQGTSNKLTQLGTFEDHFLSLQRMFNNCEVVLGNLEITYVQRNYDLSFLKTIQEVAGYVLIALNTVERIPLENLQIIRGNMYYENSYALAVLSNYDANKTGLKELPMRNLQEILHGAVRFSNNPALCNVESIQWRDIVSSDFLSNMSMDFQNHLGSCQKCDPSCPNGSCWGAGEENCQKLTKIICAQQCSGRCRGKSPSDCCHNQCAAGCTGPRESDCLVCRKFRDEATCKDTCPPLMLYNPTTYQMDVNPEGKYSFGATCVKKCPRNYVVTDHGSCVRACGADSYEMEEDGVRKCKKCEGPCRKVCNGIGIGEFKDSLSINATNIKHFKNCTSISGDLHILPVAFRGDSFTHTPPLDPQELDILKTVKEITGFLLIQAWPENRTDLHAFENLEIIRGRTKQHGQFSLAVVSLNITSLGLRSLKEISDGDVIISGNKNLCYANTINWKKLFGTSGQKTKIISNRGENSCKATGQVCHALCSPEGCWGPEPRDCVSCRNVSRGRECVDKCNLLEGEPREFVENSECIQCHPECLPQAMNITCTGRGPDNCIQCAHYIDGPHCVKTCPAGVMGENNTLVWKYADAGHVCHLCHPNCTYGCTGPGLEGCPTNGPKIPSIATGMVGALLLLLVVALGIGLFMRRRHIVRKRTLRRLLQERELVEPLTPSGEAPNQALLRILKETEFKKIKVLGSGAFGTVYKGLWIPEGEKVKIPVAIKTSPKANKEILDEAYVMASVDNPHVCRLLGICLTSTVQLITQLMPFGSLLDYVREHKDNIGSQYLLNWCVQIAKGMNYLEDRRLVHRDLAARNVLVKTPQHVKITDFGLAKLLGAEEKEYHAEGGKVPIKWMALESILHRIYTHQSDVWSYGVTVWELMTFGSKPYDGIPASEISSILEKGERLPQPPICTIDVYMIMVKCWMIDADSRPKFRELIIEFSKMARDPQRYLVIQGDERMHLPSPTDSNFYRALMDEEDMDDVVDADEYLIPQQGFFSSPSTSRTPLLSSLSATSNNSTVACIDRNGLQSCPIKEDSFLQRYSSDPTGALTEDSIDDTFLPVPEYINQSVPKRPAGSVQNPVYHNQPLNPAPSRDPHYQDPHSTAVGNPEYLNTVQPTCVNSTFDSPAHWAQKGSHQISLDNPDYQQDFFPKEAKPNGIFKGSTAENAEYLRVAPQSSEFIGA
PROTOCOL TEXT: Biochemical EGFR kinase inhibition assay (Lance Ultra TR-FRET), double mutant del19/C797S
ASSAY CONTEXT: IC50 Del19/C797S (nM), 100 μM ATP
QUANTITY: IC50 (nM)

>  <MOLECULE>
O=S(=O)(C1CC1)N1CCC(C#Cc2cnc(Nc3ccnc(-c4cnn(S(=O)(=O)C5CC5)c4)n3)cc2N[C@H]2CC[C@@H](CO)CC2)CC1

>  <RECORDED MEASUREMENT>
11.6

$$$$
>  <MOLECULE>
Cc1nn(S(=O)(=O)N(C)C)cc1-c1nccc(Nc2cc(N3CCC(C)(CO)CC3)c(C#Cc3cnn(C(F)(F)F)c3)cn2)n1

>  <RECORDED MEASUREMENT>
81.9

$$$$
>  <MOLECULE>
O=S(=O)(C1CC1)n1cc(-c2nccc(Nc3cc(N4C[C@H]5C[C@@]5(CO)C4)c(C#Cc4cnn(C(F)(F)F)c4)cn3)n2)cn1

>  <RECORDED MEASUREMENT>
255

$$$$
>  <MOLECULE>
CN1CC(n2cc(C#Cc3cnc(Nc4ccnc(-c5cnn(S(=O)(=O)C6CC6)c5)n4)cc3N3CCC(C)(CO)CC3)cn2)C1

>  <RECORDED MEASUREMENT>
0.3

$$$$
>  <MOLECULE>
Cn1ncc(C#Cc2cnc(Nc3ccnc(-c4cnn(S(=O)(=O)C5CC5)c4)n3)cc2N2CCC(O)CC2)c1C1CC1

>  <RECORDED MEASUREMENT>
23.9

$$$$
>  <MOLECULE>
Cn1cc(C#Cc2cnc(Nc3ccnc(-c4cnn(S(=O)(=O)C5CC5)c4)n3)cc2N2CCCC(C(F)(F)F)C2)cn1 (stereo not drawn)

>  <RECORDED MEASUREMENT>
127

$$$$
